Values were extracted from the Human Domainome abundance scans (Beltran et al. 2025).

B1: Zinc finger homeobox protein 3, residues 2643 to 2698; numbered along this chain, Q15911 (parent)
chain: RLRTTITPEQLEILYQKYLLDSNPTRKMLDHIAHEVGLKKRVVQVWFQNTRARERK

# Variants of: B1
# protocol_summary: abundance fitness (aPCA) (normalised: wild type 0, dead -1); higher = more abundant; growth selection in yeast, the domain comes from the species named
# condition_description: Homo sapiens
Returns one of criterion met or criterion not met; criterion met when abundance fitness is >= -0.4.

sequence_record="RLRTTITPEQLEILYQKYLLDSNPTRKMLDHIAHEVGLKKRVVQVWFQNLRARERK [T50L]" category="criterion met"
sequence_record="RLRTTITPEQLEILYQKYLLDSNPTRKMLDHIAHEVGLKKRVVQVWFQNTAARERK [R51A]" category="criterion met"
sequence_record="RLRTTITPEALEILYQKYLLDSNPTRKMLDHIAHEVGLKKRVVQVWFQNTRARERK [Q10A]" category="criterion met"
sequence_record="RLRTTITPEQLEILYQKYLLDSNPTRKMLDHIAHEVGLKKRVVQVWFQWTRARERK [N49W]" category="criterion not met"
sequence_record="RLRTTITPEQLEILYQKYLLDSNPTRKMLDHIAHEVGLKKRVVAVWFQNTRARERK [Q44A]" category="criterion met"
sequence_record="RLRTTITPEQLEILYQKYLLDSRPTRKMLDHIAHEVGLKKRVVQVWFQNTRARERK [N23R]" category="criterion met"
sequence_record="RLRTTITPENLEILYQKYLLDSNPTRKMLDHIAHEVGLKKRVVQVWFQNTRARERK [Q10N]" category="criterion met"
sequence_record="RLRTTITPEQLEILYQKYLLYSNPTRKMLDHIAHEVGLKKRVVQVWFQNTRARERK [D21Y]" category="criterion not met"
sequence_record="RLRTTITPEQLEILYQKYLLDSNPTRKMLDHIAHEVGLFKRVVQVWFQNTRARERK [K39F]" category="criterion not met"
sequence_record="RLRTTITPEQLEILYQKYLLDSNPTRKMLDHIAHEVQLKKRVVQVWFQNTRARERK [G37Q]" category="criterion met"
sequence_record="RLRTTITPEQLEILYQKYLLDSNPTRKMLDHIAHEVGLDKRVVQVWFQNTRARERK [K39D]" category="criterion met"
